# TARGET UNDER TEST: LpxC (Pseudomonas aeruginosa)
# Sequence (P47205 whole entry): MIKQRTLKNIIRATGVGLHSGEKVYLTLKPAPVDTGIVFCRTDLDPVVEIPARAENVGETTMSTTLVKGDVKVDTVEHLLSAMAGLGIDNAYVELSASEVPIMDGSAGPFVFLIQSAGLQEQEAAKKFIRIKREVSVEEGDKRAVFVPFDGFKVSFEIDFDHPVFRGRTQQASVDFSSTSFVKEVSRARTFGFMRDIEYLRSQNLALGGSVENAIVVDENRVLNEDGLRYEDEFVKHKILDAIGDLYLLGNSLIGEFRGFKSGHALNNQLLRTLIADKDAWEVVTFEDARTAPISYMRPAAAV
# METHOD NOTES: Inhibition of LpxC Enzyme
# PROTOCOL CONDITIONS: LpxC enzyme is pseudomonas construct
pIC50: −log10 of the molar value. Structures can show the parent of a compound that is named as a salt.
ASSAY READOUT: pIC50

Please review the following examples before continuing.
[[record]]
compound = "O=C(O)CCCOc1ccc(-c2ccc(-c3cc(N4C(=O)CNC4=S)c4cnccc4n3)cc2)cc1 [Example 83]"
assay_readout = "pIC50"
measured = 8.40

[[record]]
compound = "NNC(=O)c1cc(-c2ccc(-c3ccc(-c4cc(CO)on4)cc3)cc2)nc2cc(NS(=O)(=O)CC(=O)O)ncc12 [Example 328, hydrochloride]"
assay_readout = "pIC50"
measured = 8.70

[[record]]
compound = "CS(=O)(=O)NCc1cc(-c2ccc(-c3ccc(-c4cc(C(=O)NN)c5cnccc5n4)cc3)cc2)no1 [Example 35]"
assay_readout = "pIC50"
measured = 8.70


P. CS(=O)(=O)Nc1cc2nc(-c3ccc(C#Cc4ccc(C(=O)N5CCCC[C@H]5C(=O)O)cc4Cl)cc3)cc(C(=O)NN)c2cn1 [Example 309, hydrochloride]
Q. NNC(=O)c1cc(-c2ccc(-c3ccc(-c4cc(C(=O)N5CCC[C@@H]5C(=O)O)on4)cc3)cc2)nc2ccncc12 [Example 31, hydrochloride]
Q. Parameter metric = pIC50. Return the lower-valued option from P and Q . Refer to your chosen item by its label in the answer.
A. Q
(Q: 8.40, P: 8.70)

Where do the numbers come from? From patent US9663488B2.
